MIC for assorted molecules
- Test system: Mycobacterium tuberculosis H37Rv
- assay.explanation: Mycobacterium tuberculosis H37Rv Inhibition Assay
- Assay type: cell-based
- measurement.parameters: ATCC 25618 / H37Rv, H37Rv strain (ATCC25618), Middlebrook 7H9, resazurin fluorescence, read-out: MtB MIC

[
  {
    "smiles.structure": "N#Cc1ncc(CNC2CCN(C[C@@H]3Cn4c(=O)ccc5ccc(=O)n3c54)CC2)cc1Cl",
    "MIC / µg/mL": 0.07
  },
  {
    "smiles.structure": "CCc1ncc(CNC2CCN(C[C@@H]3Cn4c(=O)ccc5ccc(=O)n3c54)CC2)cc1F",
    "MIC / µg/mL": 2.19
  },
  {
    "smiles.structure": "O=c1ccc2ccc(=O)n3c2n1C[C@H]3CN1CCC(NCc2cnc(CO)c(Cl)c2)CC1",
    "MIC / µg/mL": 0.3
  }
]

###

MIC for assorted compounds
- System: Mycobacterium tuberculosis H37Rv
- assay.explanation: Mycobacterium tuberculosis H37Rv Inhibition Assay
- Assay type: cell-based
- measurement.parameters: ATCC 25618 / H37Rv, H37Rv strain (ATCC25618), Middlebrook 7H9, resazurin fluorescence, read-out: MtB MIC

[
  {
    "compound": "Cc1cc(CNC2CCN(C[C@@H]3Cn4c(=O)ccc5ncc(=O)n3c54)CC2)ccc1F.Cl [Example 6]",
    "MIC (µg/mL)": 0.29
  },
  {
    "compound": "Cc1ncc(CNC2CCN(C[C@H]3Cn4c(=O)ccc5ncc(=O)n3c54)CC2)cc1Cl [Example 53]",
    "MIC (µg/mL)": 0.83
  },
  {
    "compound": "O=c1ccc2ncc(=O)n3c2n1CC3CN1CCC(NCc2cncc(Cl)c2)CC1 (stereo not shown) [Example 42]",
    "MIC (µg/mL)": 1.07
  },
  {
    "compound": "Cc1cc(CNC2CCN(CC3Cn4c(=O)ccc5ncc(=O)n3c54)CC2)sc1Br (stereo not shown) [Example 24]",
    "MIC (µg/mL)": 0.077
  }
]
